molecular target: SARS-CoV-2 Wuhan-Hu-1 RBD (SARS-CoV-2, Wuhan-Hu-1 (GenBank …, UniProt P0DTC2)); assay: cell-based or functional assay
Measurement Name: neutralisation IC50, Wuhan-Hu-1 pseudovirus

*Q* # return recorded neutralisation IC50, Wuhan-Hu-1 pseudovirus for entry JR154 (antibody, V domains shown) VH: EVQLVESGGGLVQPGRSLRLSCEASGFIFDDYAMHWVRQGPGKGLEWVSGITSNSGSMGYADSVKGRFTISRDNAKNSLYLQMNSLRPEDTAFYYCAKDMVSGVFLWFGELENWGQGTLVTVS VL: QSVLTQPPSASGTPGQRVTISCYGSRSNFGTNTVNWYQQLPGMAPRLLIHSHNQRPSGVPARFSGSKSGTSASLAISGLQSEDEAHYYCASWDGGLNAVVFGGGTKLIVL
*A* > 1 µg/mL

*Q* # return recorded neutralisation IC50, Wuhan-Hu-1 pseudovirus for entry JR212 (antibody, V domains shown) VH: QVQLVQSGAEVKKPGSSVKVSCKASGGTFSNYAISWVRQAPGQGLEWMGGIIPLFGTTNYAQKFQGRVTITADESTSTAYMELSSLRSEDTAMYYCASYSSGYHLVTDYWGQGTLVTVSS VL: EIVLTQSPGTLSLSPGERATLSCRASQSVTSSYLAWYQQKPGQAPRLLIYGASSRATGIPDRFSGSGSGTDFTLTISRLEPEDFAVYYCQQYGTSRTFGQGTKVEIK
*A* 0.178 µg/mL

*Q* # return recorded neutralisation IC50, Wuhan-Hu-1 pseudovirus for entry JR065 (antibody, V domains shown) VH: VQLVESGGGVAQPGRSLRLSCAASGFTFSHYGMHWVRQGPGKGLEWVAGISFDGSDKYYADSVKGRFTISRDNSKNTFYLQMNSLRTDDTAVFYCAKQGFGYGSGWYYFDYWGQGTLVTVSS VL: IRMTQSPSSLSASVGDRVTITCQASQDISKYLNWYQQRPGKAPKPLIYDASNLETGVPSRFSGSGSGTDFTLTITNLQPEDIATYYCQQYDNVPSVTFGQGTRLEIK
*A* > 1 µg/mL
